Data provenance is paper PMC2756588.

- MEASURED_TARGET: Myo3, P36006
- ASSAY_PROCEDURE: SPOT array
- CONDITION_INFO: median of control spots 468
Under this convention, Fulfilled denotes SPOT intensity strictly below 10 and Not fulfilled denotes SPOT intensity at or above 10.

BINDER: NENKKLPPAPTVFGL
GROUP: Fulfilled
//
BINDER: RSLRKRPTSPSISGS
GROUP: Fulfilled
//
BINDER: NRLRKRLNLPSEISI
GROUP: Fulfilled
//
BINDER: KIRRSSLMIPNPQQF
GROUP: Not fulfilled
//
BINDER: LKQRFFLMFPKSIIW
GROUP: Not fulfilled
//
BINDER: GQYRRTIVIPRRFFT
GROUP: Not fulfilled
